Form field: inhibition at 10 µM (one value per entry).
SYSTEM NAME: bradykinin 1 receptor (B1R) of the rat (Rattus norvegicus)
Construct: expressed in transfected cells; host or cells: CHO K1 cells
Sequence (P97583 whole entry): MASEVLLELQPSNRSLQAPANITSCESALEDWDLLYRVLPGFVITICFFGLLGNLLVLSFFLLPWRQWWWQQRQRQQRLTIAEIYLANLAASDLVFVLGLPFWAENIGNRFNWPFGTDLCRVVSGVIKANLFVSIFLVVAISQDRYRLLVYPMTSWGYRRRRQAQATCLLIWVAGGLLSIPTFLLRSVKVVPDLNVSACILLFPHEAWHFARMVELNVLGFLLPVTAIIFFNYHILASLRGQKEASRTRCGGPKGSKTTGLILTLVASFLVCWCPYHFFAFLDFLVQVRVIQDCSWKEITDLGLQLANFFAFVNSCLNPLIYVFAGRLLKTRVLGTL
ASSAY NAME: Functional investigation on the rat bradykinin 1 receptor (B1R), Ca2+ FLIPR assay in CHO K1 rB1R cells
Assay type: cell-based
SETTINGS: CHO-K1, B1R antagonism rat; test substance 10 μM; Ca2+ FLIPR, CHO K1 rB1R cells; read-out: B1R Ant. r [10 μM] % Inhibition
READOUT TYPE: inhibition at 10 µM (%)

INSERT INTO measurements (compound, system_name, uom, readout_number) VALUES
  ('COc1cc(C)c(S(=O)(=O)N(C)CCOCC(=O)NCCC2CCC(C(c3cccs3)N(C)C)CC2)c(C)c1C (stereo not shown) [Example 52]', 'bradykinin 1 receptor (B1R) of the rat (Rattus norvegicus)', '%', 53),
  ('Cc1ccc(F)cc1-c1noc(C(=O)NCC(=O)NC2CCC(C(c3ccccc3)N(C)C)CC2)n1 (stereo not shown) [Example 767]', 'bradykinin 1 receptor (B1R) of the rat (Rattus norvegicus)', '%', 17),
  ('CN(CCOCC(=O)NC1CCC(C(CCc2ccccc2)N2CCCCC2)CC1)S(=O)(=O)c1c(Cl)cc(Cl)cc1Cl (stereo not shown) [Example 637]', 'bradykinin 1 receptor (B1R) of the rat (Rattus norvegicus)', '%', 45),
  ('CN(C)C(c1cccc(F)c1)C1CCC(CNC(=O)COCCN(C)S(=O)(=O)c2ccc(Cl)cc2)CC1 (stereo not shown) [Example 158]', 'bradykinin 1 receptor (B1R) of the rat (Rattus norvegicus)', '%', 5),
  ('COc1cc(C)c(S(=O)(=O)N2CCCC2COCC(=O)NC2CCC(C(c3ccccc3)N3CCOCC3)CC2)c(C)c1 (stereo not shown) [Example 694]', 'bradykinin 1 receptor (B1R) of the rat (Rattus norvegicus)', '%', 104),
  ('COc1cc(C)c(S(=O)(=O)N2CCC(OCC(=O)NC3CCC(C(c4cccc(F)c4)N(C)C)CC3)C2)c(C)c1C (stereo not shown) [Example 189]', 'bradykinin 1 receptor (B1R) of the rat (Rattus norvegicus)', '%', 16),
  ('CN(C)C(c1cccs1)C1CCC(CCNC(=O)COCC2CCCN(S(=O)(=O)c3ccccc3)C2)CC1 (stereo not shown) [Example 115]', 'bradykinin 1 receptor (B1R) of the rat (Rattus norvegicus)', '%', 21);
